Hey, just so you know, these numbers are from patent US20160369011A1.

Form field: kon (one value per entry).
- measured_target: human CA9 (carbonic anhydrase IX) (human, UniProt Q16790 38-414)
- assay_explanation: BIAcore T100, mAb captured on anti-human IgG, antigen as analyte, 1:1 model; mAb purified by the decapping method (Decapped)
- Method: Antibody concentrations were adjusted to generate 30-40 RU signal when bound to the antigen. […] The sensor surface was washed by injecting HBS-P buffer for 1 min at a flow rate of 50 μL/min. […] The dissociation of antigen was monitored for 30 min at the same flow rate. […] Sensograms were analyzed with Biacore T100 Evaluation Software using a 1:1 Langmuir binding model. […]
recorded_endpoint: kon (M⁻¹ s⁻¹)

[
  {
    "binder": "zu155D5-5 (antibody, human IgG1, kappa, V domains shown, Humanized 155D5, human IgG1 kappa; Tested both protein A purified and decapped) VH: QVQLVESGGGLVQPGGSLRLSCSASGFSLNSYAMIWVRQAPGKGLEYIGFITTGGTTYYADSVKGRFTISRDNSKNTLYLQMNSLRAEDTAVYYCARDRVKSYDDYGDLDAFEPWGQGTLVTVSS VL: DIQMTQSPSTLSASVGDRVTITCQASQSISSYLAWYQQKPGKAPKLLIYYASTLASGVPSRFKGSGSGTEFTLTITGVQCDDAATYYCLGVYGYSFDDGIAFGGGTKVEIKR",
    "assay_result": 572000
  },
  {
    "binder": "zu155D5-2 (antibody, human IgG1, kappa, V domains shown, Humanized 155D5, human IgG1 kappa; Tested both protein A purified and decapped) VH: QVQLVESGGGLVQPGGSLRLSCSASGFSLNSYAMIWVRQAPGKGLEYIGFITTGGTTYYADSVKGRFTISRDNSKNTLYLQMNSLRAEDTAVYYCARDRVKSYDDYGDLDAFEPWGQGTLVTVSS VL: DIQMTQSPSTLSASVGDRVTITCQASQSISSYLAWYQQKPGKAPKLLIYYASTLASGVPSRFSGSGSGTEFTLTITGVQCDDFATYYCLGVYGYSFDDGIAFGGGTKVEIKR",
    "assay_result": 458000
  },
  {
    "binder": "zu155D5-3 (antibody, human IgG1, kappa, V domains shown, Humanized 155D5, human IgG1 kappa; Tested both protein A purified and decapped; also called zu155D5-CXXA) VH: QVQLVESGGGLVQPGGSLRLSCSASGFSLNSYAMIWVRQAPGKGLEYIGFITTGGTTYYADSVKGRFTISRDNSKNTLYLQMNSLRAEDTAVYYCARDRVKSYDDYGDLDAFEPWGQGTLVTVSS VL: DIQMTQSPSTLSASVGDRVTITCQASQSISSYLAWYQQKPGKAPKLLIYYASTLASGVPSRFSGSGSGTEFTLTISSLQCDDAATYYCLGVYGYSFDDGIAFGGGTKVEIKR",
    "assay_result": 726000
  },
  {
    "binder": "zu155D5-1 (antibody, human IgG1, kappa, V domains shown, Humanized 155D5, human IgG1 kappa; Tested both protein A purified (Cys80 capped) and decapped; also called zu155D5-CXXF; zu155D5-1 (huVK1-5)) VH: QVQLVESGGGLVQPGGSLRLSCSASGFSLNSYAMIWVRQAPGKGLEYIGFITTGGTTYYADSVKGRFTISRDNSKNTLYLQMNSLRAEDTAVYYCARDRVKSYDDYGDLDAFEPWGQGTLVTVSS VL: DIQMTQSPSTLSASVGDRVTITCQASQSISSYLAWYQQKPGKAPKLLIYYASTLASGVPSRFSGSGSGTEFTLTISSLQCDDFATYYCLGVYGYSFDDGIAFGGGTKVEIKR",
    "assay_result": 770000
  }
]
